B1: FBF1 (parent)
chain: QLQCSPAELQAELLHSQARLAELE

variants of: B1; experiment: protein stability index of a GFP-peptide fusion (GPS, HEK-293T) (PSI 1-6); higher = more stable; conditions: c terminus: a fixed tail appended;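 note: lentivirally expressed fusions sorted by FACS into six bins by GFP to DsRed ratio, PSI derived from sequencing read proportions per bin multiplied by bin number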
Consider the following variants; for each one, report its protein stability index.
Give bare numbers.

// solved cases for protein stability index follow
# variant.annotation, protein stability index
measured = [
    ("L20A", 4.91),
    ("E24Q", 3.29),
    ("L14E", 4.39),
    ("C4G", 3.32),
    ("A7M", 2.36),
]

Return reported protein stability index values for all items listed beneath this line.
1. L2P
2. A21Q
3. L23T
4. L23W
5. E12T
6. A7Y
7. A7G
8. Q10A

A)
1: 4.15; 2: 2.67; 3: 4.18; 4: 3.71; 5: 3.62; 6: 1.82; 7: 2.52; 8: 2.93

Return reported protein stability index values for all items listed beneath this line.
1. E12K
2. L14T

A)
1: 3.38; 2: 3.61
